B1: TPR t1 (parent)
chain: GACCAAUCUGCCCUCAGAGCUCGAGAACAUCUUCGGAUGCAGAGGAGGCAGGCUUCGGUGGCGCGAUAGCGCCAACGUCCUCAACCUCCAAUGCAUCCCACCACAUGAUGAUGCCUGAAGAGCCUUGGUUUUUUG

variants of: B1; test: polymerase ribozyme fitness, log enrichment relative to wild type (log ratio); higher = more active; in vitro selection for triplet polymerase activity
Provide the reported polymerase ribozyme fitness (log ratio) of each item.
Give bare numbers.

Past entries and their recorded results:
A41C G42U G71A U81C :: -4.72
G48A G60U C104A :: -1.82
C8U G44U C88G :: -1.96
C49U A95U C102A :: -3.2
C70G C124U G128C :: -3.97

List reported polymerase ribozyme fitness (log ratio) for each of these variants:
1. C11G G71C
2. C3U C11U U87A C124U
3. G48U G113A
4. C11G C64U A74U C123U
5. C8U U92A

-0.604
0.336
-1.18
0.798
-2.72
